Property: EC50; scope: individual compounds
# TESTED SYSTEM: CD73 (Homo sapiens (Human), UniProt P21589)
# Sequence (P21589 27-574): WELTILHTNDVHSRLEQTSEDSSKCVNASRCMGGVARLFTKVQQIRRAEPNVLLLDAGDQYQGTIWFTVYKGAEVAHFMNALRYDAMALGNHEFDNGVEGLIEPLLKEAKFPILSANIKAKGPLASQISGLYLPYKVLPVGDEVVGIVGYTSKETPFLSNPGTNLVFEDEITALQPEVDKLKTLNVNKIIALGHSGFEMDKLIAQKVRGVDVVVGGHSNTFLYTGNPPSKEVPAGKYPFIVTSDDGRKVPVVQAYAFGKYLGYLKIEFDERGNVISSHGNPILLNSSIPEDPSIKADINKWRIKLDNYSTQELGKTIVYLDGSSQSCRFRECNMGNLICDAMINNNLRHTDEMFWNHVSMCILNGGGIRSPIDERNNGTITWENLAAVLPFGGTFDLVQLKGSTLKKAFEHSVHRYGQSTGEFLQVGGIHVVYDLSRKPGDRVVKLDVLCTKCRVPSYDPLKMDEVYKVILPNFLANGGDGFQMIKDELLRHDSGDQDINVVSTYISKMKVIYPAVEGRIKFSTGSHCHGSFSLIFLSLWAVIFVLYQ
# TEST DESCRIPTION: MDA-MB-231 Cell Based CD73 Activity Assay (DMEM)
# CONDITION DETAILS: MDA-MB-231-GFP cells, DMEM medium with 10% human plasma, 200 uM AMP
ASSAY ENDPOINT: EC50 (nM)

INSERT INTO results (compound, result_number) VALUES
  ('Cc1nc2ccc([C@H]3C[C@@H]3c3cc(-c4c[nH]c(=O)[nH]c4=O)nn4c(F)cnc34)cc2s1 (racemic) [Example 580]', 5.79),
  ('O=c1[nH]cc(-c2cc([C@H]3C[C@@H]3c3ccc(OC(F)F)cn3)c3nccn3n2)c(=O)[nH]1 [Example 137]', 4.68),
  ('COCCNc1cc(-c2c[nH]c(=O)[nH]c2=O)nn2ccnc12 [Example 669]', 690),
  ('O=C(NCC(F)(F)F)OCC1(F)CN(c2cc(-c3c[nH]c(=O)[nH]c3=O)nn3ccnc23)C1 [Example 437]', 43.6),
  ('O=c1[nH]cc(-c2cc(N3C[C@H](Oc4ccc(OC(F)(F)F)cn4)C(F)(F)C3)c3nccn3n2)c(=O)[nH]1 [Example 335]', 6.77),
  ('O=c1[nH]cc(-c2cc(NCCCc3ccccc3)c3nccn3n2)c(=O)[nH]1 [Example 486]', 1010),
  ('O=c1[nH]cc(-c2cc(N3C[C@@H](Oc4ccc(OC(F)F)cn4)C(F)(F)C3)c3nccn3n2)c(=O)[nH]1 [Example 332]', 26.9),
  ('O=c1[nH]cc(-c2cc(N3C[C@H](Oc4ncc(C(F)(F)F)cn4)C(F)(F)C3)c3nccn3n2)c(=O)[nH]1 [Example 531]', 11.4),
  ('O=C(CC(F)(F)F)N1CCC12CCN(c1cc(-c3c[nH]c(=O)[nH]c3=O)nn3ccnc13)C2 (stereo not shown) [Example 655]', 254),
  ('O=c1[nH]cc(-c2cc(N3CC4CC4(F)C3)c3nccn3n2)c(=O)[nH]1 (stereo not shown) [Example 355]', 14.5),
  ('O=c1[nH]cc(-c2cc(N3CCC(c4ccc(F)cc4)C3)c3nccn3n2)c(=O)[nH]1 (stereo in doubt) [Example 67]', 30.3),
  ('CC(C)NC(=O)OCC(F)(F)COc1cc(-c2c[nH]c(=O)[nH]c2=O)nn2ccnc12 [Example 694]', 0.23),
  ('N#Cc1ccc(O[C@@H]2CN(c3cc(-c4c[nH]c(=O)[nH]c4=O)nn4ccnc34)CC2(F)F)nc1 [Example 338]', 72.8),
  ('COC(=O)N1CC2(C1)CN(c1cc(-c3c[nH]c(=O)[nH]c3=O)nn3ccnc13)CC2(F)F [Example 504]', 5.62),
  ('C[C@H](NC(=O)O[C@H]1CN(c2cc(-c3c[nH]c(=O)[nH]c3=O)nn3ccnc23)CC1(F)F)C(F)(F)F [Example 547]', 0.13),
  ('O=C1N(CC2(F)CC2)c2cc([C@H]3C[C@@H]3c3cc(-c4c[nH]c(=O)[nH]c4=O)nn4ccnc34)ccc2C12CC2 (racemic) [Example 734]', 0.19),
  ('O=c1[nH]cc(-c2cc([C@H]3C[C@@H]3c3ccc4cnn(CC(F)(F)F)c4c3)n3ncc(F)c3n2)c(=O)[nH]1 [Example 716]', 0.28),
  ('CC1CCN(c2cc(-c3c[nH]c(=O)[nH]c3=O)nn3ccnc23)CCC1(F)F (stereo not shown) [Example 484]', 180),
  ('O=c1[nH]cc(-c2cc(N3C[C@H](F)[C@@H](F)C3)c3nccn3n2)c(=O)[nH]1 (racemic) [Example 73]', 31.7),
  ('O=C(NC12CC(C(F)(F)F)(C1)C2)O[C@H]1CN(c2cc(-c3c[nH]c(=O)[nH]c3=O)nn3c(F)cnc23)CC1(F)F [Example 665]', 2.79),
  ('O=c1[nH]cc(-c2cc([C@H]3C[C@@H]3c3cc4c(cn3)cnn4CC(F)(F)F)c3ncc(F)n3n2)c(=O)[nH]1 (racemic) [Example 604]', 0.12),
  ('CC1(C)CN(c2cc(-c3c[nH]c(=O)[nH]c3=O)nc3c(F)cnn23)CC1(F)F [Example 219]', 62.6),
  ('O=c1[nH]cc(-c2cc([C@H]3C[C@@H]3c3ncc4cnn(CC(F)(F)F)c4c3F)c3ncc(F)n3n2)c(=O)[nH]1 (racemic) [Example 621]', 0.32),
  ('O=c1[nH]cc(-c2cc([C@H]3C[C@@H]3c3ccc4c(c3)c(=O)ccn4CC(F)(F)F)c3nccn3n2)c(=O)[nH]1 [Example 708]', 6.21),
  ('O=c1[nH]cc(-c2cc(N3CCC(c4ccc(C(F)(F)F)cc4)C3)c3ncc(F)n3n2)c(=O)[nH]1 (stereo not shown) [Example 262]', 565),
  ('N#Cc1cc(F)c([C@H]2C[C@@H]2c2cc(-c3c[nH]c(=O)[nH]c3=O)nn3c(F)cnc23)cc1F [Example 573]', 7.46),
  ('O=C(CC1CN(c2cc(-c3c[nH]c(=O)[nH]c3=O)nn3ccnc23)CC1(F)F)NC12CC(F)(C1)C2 (stereo not shown) [Example 660]', 33.6),
  ('O=c1[nH]cc(-c2cc(N3CC(F)(F)C3)c3nccn3n2)c(=O)[nH]1 [Example 481]', 44.4);

* * *

# TESTED SYSTEM: CD73 (Homo sapiens (Human), UniProt P21589)
# Format: biochemical
# CONDITION DETAILS: 1 mM NaH2PO4 in enzyme buffer, CD73 0.3 nM, AMP 15 uM
pIC50: −log10 of the molar value.
ASSAY ENDPOINT: pIC50

INSERT INTO results (compound, tested_system, result_number) VALUES
  ('O=c1[nH]cc(-c2cc([C@H]3C[C@@H]3c3cc(OCC(F)(F)F)c4ncccc4c3)c3nccn3n2)c(=O)[nH]1 (racemic)', 'CD73 (Homo sapiens (Human), UniProt P21589)', 8.58),
  ('O=c1[nH]cc(-c2cc(N3CC(F)C4(CC4)C3)n3nccc3n2)c(=O)[nH]1 (stereo not drawn)', 'CD73 (Homo sapiens (Human), UniProt P21589)', 7.41),
  ('O=c1[nH]cc(-c2cc([C@H]3C[C@@H]3c3ccc(C(F)(F)F)cc3)c3nccn3n2)c(=O)[nH]1 [Example 554]', 'CD73 (Homo sapiens (Human), UniProt P21589)', 8.80),
  ('O=C(NC1CN(c2cc(-c3c[nH]c(=O)[nH]c3=O)nn3ccnc23)CC1(F)F)c1ccccc1 (stereo not drawn)', 'CD73 (Homo sapiens (Human), UniProt P21589)', 8.55),
  ('O=c1[nH]cc(-c2cc([C@H]3C[C@@H]3c3cccc4ccncc34)c3nccn3n2)c(=O)[nH]1 (racemic)', 'CD73 (Homo sapiens (Human), UniProt P21589)', 7.37),
  ('CC(C)(COc1cc(-c2c[nH]c(=O)[nH]c2=O)nn2ccnc12)C(F)(F)F', 'CD73 (Homo sapiens (Human), UniProt P21589)', 6.85),
  ('CC(C)n1cc(CC2CCN(c3cc(-c4c[nH]c(=O)[nH]c4=O)nn4ccnc34)C2)nn1 (stereo not drawn)', 'CD73 (Homo sapiens (Human), UniProt P21589)', 7.61),
  ('O=c1[nH]cc(-c2cc([C@H]3C[C@@H]3c3ccc4ncsc4c3)c3ncc(F)n3n2)c(=O)[nH]1 (racemic)', 'CD73 (Homo sapiens (Human), UniProt P21589)', 9.05),
  ('O=c1[nH]cc(-c2cc(OCCC(F)(F)F)c3nccn3n2)c(=O)[nH]1', 'CD73 (Homo sapiens (Human), UniProt P21589)', 7.21),
  ('O=c1[nH]cc(-c2cc(N3C[C@@H](Oc4ccc(OC(F)F)cn4)C(F)(F)C3)c3nccn3n2)c(=O)[nH]1', 'CD73 (Homo sapiens (Human), UniProt P21589)', 8.06),
  ('O=c1[nH]cc(-c2cc([C@H]3C[C@@H]3c3ccc4ncn(CC(F)(F)F)c4c3)c3ncc(F)n3n2)c(=O)[nH]1', 'CD73 (Homo sapiens (Human), UniProt P21589)', 9.29),
  ('N#Cc1ccc([C@H]2C[C@@H]2c2cc(-c3c[nH]c(=O)[nH]c3=O)nn3ccnc23)cc1C(F)(F)F (racemic)', 'CD73 (Homo sapiens (Human), UniProt P21589)', 8.21),
  ('O=c1[nH]cc(-c2cc(N3CCC(C(F)(F)F)(C(F)(F)F)C3)c3nccn3n2)c(=O)[nH]1', 'CD73 (Homo sapiens (Human), UniProt P21589)', 7.16),
  ('O=c1[nH]cc(-c2cc([C@H]3C[C@@H]3c3ccc(Cl)cc3)c3nccn3n2)c(=O)[nH]1', 'CD73 (Homo sapiens (Human), UniProt P21589)', 8.81),
  ('O=c1[nH]cc(-c2cc(OCC(F)(F)c3ccccn3)c3nccn3n2)c(=O)[nH]1', 'CD73 (Homo sapiens (Human), UniProt P21589)', 8.49);

Where do these numbers come from? They come from patent US20240043427A1.
